ASSAY TARGET: E. coli DNA gyrase (Escherichia coli (strain K12), UniProt P0AES6)
PROTOCOL SUMMARY: DNA gyrase inhibition assay (Inspiralis, streptavidin-coated plates)
Experimental: Inhibitory activities for compounds of the present invention were determined on E. coli and S. aureus DNA gyrase and topoisomerase IV in an assay from Inspiralis on streptavidin-coated 96-well microtiter plates from Thermo scientific Pierce. […] After washing off the unbound oligonucleotide, the enzyme test was performed. […] Reaction solutions were incubated at 37° C. for 30 min. […]
pIC50: −log10 of the molar value.
Property: pIC50; scope: individual molecules
METRIC: pIC50

CHEMICAL STRING: Cc1[nH]c(C(=O)Nc2nc3c(OCCN4CCOCC4)cc(C(=O)NCC#N)cc3s2)c(Cl)c1Cl.Cl
ASSAY TARGET: E. coli DNA gyrase (Escherichia coli (strain K12), UniProt P0AES6)
RECORDED RESULT: > 8.30

CHEMICAL STRING: Cc1[nH]c(C(=O)Nc2nc3c(N4CC[C@H](N)C4)cc(C(=O)O)cc3s2)c(Cl)c1Cl.Cl
ASSAY TARGET: E. coli DNA gyrase (Escherichia coli (strain K12), UniProt P0AES6)
RECORDED RESULT: > 8.30

CHEMICAL STRING: Cc1[nH]c(C(=O)Nc2nc3c(-c4ccccc4)cc(C(=O)O)cc3s2)c(Cl)c1Cl
ASSAY TARGET: E. coli DNA gyrase (Escherichia coli (strain K12), UniProt P0AES6)
RECORDED RESULT: > 8.30

====

ASSAY TARGET: E. coli DNA gyrase (Escherichia coli (strain K12), UniProt P0AES6)
PROTOCOL SUMMARY: DNA gyrase inhibition assay (Inspiralis, streptavidin-coated plates)
# reported IC50; entries follow
METRIC: IC50

CHEMICAL STRING: Cc1[nH]c(C(=O)Nc2nc3ccc(C(=O)O)cc3s2)c(Cl)c1Br
RECORDED RESULT: < 5 nM
//
CHEMICAL STRING: Cc1[nH]c(C(=O)Nc2nc3c(F)cc(C(=O)O)cc3s2)c(Cl)c1Cl
RECORDED RESULT: < 5 nM
//
CHEMICAL STRING: Cc1[nH]c(C(=O)Nc2nc3c(OCc4cccs4)cc(C(=O)O)cc3s2)c(Cl)c1Cl
RECORDED RESULT: < 5 nM
//
CHEMICAL STRING: COC(=O)c1cc(N2CC[C@H](NC(=O)OC(C)(C)C)C2)c2nc(NC(=O)c3[nH]c(C)c(Cl)c3Cl)sc2c1
RECORDED RESULT: > 10000 nM

====

ASSAY TARGET: E. coli DNA gyrase (Escherichia coli (strain K12))
PROTOCOL SUMMARY: DNA gyrase inhibition assay (Inspiralis, streptavidin-coated plates)
METRIC: IC50 (nM)

CHEMICAL STRING: Cc1[nH]c(C(=O)Nc2nc3c(OCc4ccsc4)cc(C(=O)O)cc3s2)c(Cl)c1Cl
METRIC: IC50
READOUT RELATION: <
RECORDED RESULT: 5
--
CHEMICAL STRING: Cc1[nH]c(C(=O)Nc2nc3ccc(C(=O)NCC#N)cc3s2)c(Cl)c1Cl
METRIC: IC50
READOUT RELATION: =
RECORDED RESULT: 16
--
CHEMICAL STRING: O=C(O)c1ccc2nc(N(Cc3ccccc3)C(=O)c3cc(Br)c(Br)[nH]3)sc2c1
METRIC: IC50
READOUT RELATION: =
RECORDED RESULT: 5.1
--
CHEMICAL STRING: Cc1[nH]c(C(=O)Nc2nc3ccc(-c4nnn[nH]4)cc3s2)c(Cl)c1Cl
METRIC: IC50
READOUT RELATION: <
RECORDED RESULT: 5
